The following variants are shown together with reported self-cleavage values.
B1: LINE1-mini (parent)
chain: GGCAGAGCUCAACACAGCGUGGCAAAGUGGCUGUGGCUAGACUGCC

variants of: B1; experiment: self-cleavage, relative activity (ratio to wild type); higher = more cleavage; in vitro, sequencing; the parent is a self-cleaving ribozyme
Format: numeric value only, no unit, no commentary.

Use these answered entries as a reference point.
Alteration | self-cleavage
C3A A12C | 0.07
U32A C45U | 0.07

Please look at the following variant next.
Incoming: Given the entry G2U C8A , report its measured self-cleavage.
Outgoing: 0.07
